Sourced from PubChem BioAssay AID2060503

- System: 817829-284-R-J1-PDC complex spheroids, viability
- Experimental Details: Anticancer human tumor 817829-284-R-J1-PDC patient-derived colon adenocarcinoma cell line growth inhibition [GQUAD]
- Condition Details: second compound 1 µM; first compound 0.00999 µM; active compounds read low
Decision: viability, T/C beneath 20% gives YES; viability, T/C meeting or exceeding 20% gives NO.

Compound	Classification
CCc1c2c(nc3ccc(O)cc13)-c1cc3c(c(=O)n1C2)COC(=O)[C@]3(O)CC + CN(C)c1ccc(Nc2c3ccc(NC(=O)CCN4CCCC4)cc3nc3cc(NC(=O)CCN4CCCC4)ccc23)cc1	NO
CC[C@@]1(O)C(=O)OCc2c1cc1n(c2=O)Cc2cc3c(CN(C)C)c(O)ccc3nc2-1 + Cc1[nH]c2ccc(F)cc2c1-c1nc2c3cccnc3c3ncccc3c2[nH]1	NO
Cc1[nH]c2ccccc2c1CCNCc1ccc(/C=C/C(=O)NO)cc1 + CN(C)c1ccc(Nc2c3ccc(NC(=O)CCN4CCCC4)cc3nc3cc(NC(=O)CCN4CCCC4)ccc23)cc1	NO
CC[C@@]1(O)C(=O)OCc2c1cc1n(c2=O)Cc2cc3c(CN(C)C)c(O)ccc3nc2-1 + Cc1cnc(CNC(=O)c2c(=O)c3ccc(N4CCCN(C)CC4)nc3n3c2sc2ccccc23)cn1	NO
CCc1c2c(nc3ccc(O)cc13)-c1cc3c(c(=O)n1C2)COC(=O)[C@]3(O)CC + Cc1[nH]c2ccc(F)cc2c1-c1nc2c3cccnc3c3ncccc3c2[nH]1	NO
CC[C@@]1(O)C(=O)OCc2c1cc1n(c2=O)Cc2cc3c(CN(C)C)c(O)ccc3nc2-1 + CN(C)c1ccc(Nc2c3ccc(NC(=O)CCN4CCCC4)cc3nc3cc(NC(=O)CCN4CCCC4)ccc23)cc1	NO
Cn1ncnc1[C@H]1c2n[nH]c(=O)c3cc(F)cc(c23)N[C@@H]1c1ccc(F)cc1 + CN(C)c1ccc(Nc2c3ccc(NC(=O)CCN4CCCC4)cc3nc3cc(NC(=O)CCN4CCCC4)ccc23)cc1	NO
Cn1ncnc1[C@H]1c2n[nH]c(=O)c3cc(F)cc(c23)N[C@@H]1c1ccc(F)cc1 + Cc1cnc(CNC(=O)c2c(=O)c3ccc(N4CCCN(C)CC4)nc3n3c2sc2ccccc23)cn1	NO
Cc1[nH]c2ccccc2c1CCNCc1ccc(/C=C/C(=O)NO)cc1 + Cc1[nH]c2ccc(F)cc2c1-c1nc2c3cccnc3c3ncccc3c2[nH]1	NO
Cc1[nH]c2ccccc2c1CCNCc1ccc(/C=C/C(=O)NO)cc1 + Cc1cnc(CNC(=O)c2c(=O)c3ccc(N4CCCN(C)CC4)nc3n3c2sc2ccccc23)cn1	YES
Cn1ncnc1[C@H]1c2n[nH]c(=O)c3cc(F)cc(c23)N[C@@H]1c1ccc(F)cc1 + Cc1[nH]c2ccc(F)cc2c1-c1nc2c3cccnc3c3ncccc3c2[nH]1	NO
CCc1c2c(nc3ccc(O)cc13)-c1cc3c(c(=O)n1C2)COC(=O)[C@]3(O)CC + Cc1cnc(CNC(=O)c2c(=O)c3ccc(N4CCCN(C)CC4)nc3n3c2sc2ccccc23)cn1	YES

* * *

- System: 817829-284-R-J1-PDC complex spheroids, viability
- Experimental Details: Anticancer human tumor 817829-284-R-J1-PDC cell line growth inhibition [GQUAD];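 further: spheroids exposed to agents for 7 days before readout; percent viability relative to DMSO vehicle control taken as 100%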
- Condition Details: second compound 0.0316 µM; first compound 0.0316 µM; active compounds read low
molecules and their reported viability, T/C

Molecule	viability, T/C / %
CC[C@@]1(O)C(=O)OCc2c1cc1n(c2=O)Cc2cc3c(CN(C)C)c(O)ccc3nc2-1 + Cc1[nH]c2ccc(F)cc2c1-c1nc2c3cccnc3c3ncccc3c2[nH]1	51.8
Cc1cccc(N(C)C(=O)C2C(O)CCN2c2nc(C)cc(C(F)(F)F)c2C#N)c1 (stereo not given) + Cc1[nH]c2ccc(F)cc2c1-c1nc2c3cccnc3c3ncccc3c2[nH]1	103
CC(C)n1c(=O)n(C)c2cnc3cc(F)c(-c4ccc(OCCCN5CCCCC5)nc4)cc3c21 + CN(C)c1ccc(Nc2c3ccc(NC(=O)CCN4CCCC4)cc3nc3cc(NC(=O)CCN4CCCC4)ccc23)cc1	92.8
O=C(NO)c1cnc(N2CCN(S(=O)(=O)c3ccc4ccccc4c3)CC2)nc1 + Cc1[nH]c2ccc(F)cc2c1-c1nc2c3cccnc3c3ncccc3c2[nH]1	97
CC(C)n1c(=O)n(C)c2cnc3cc(F)c(-c4ccc(OCCCN5CCCCC5)nc4)cc3c21 + Cc1cnc(CNC(=O)c2c(=O)c3ccc(N4CCCN(C)CC4)nc3n3c2sc2ccccc23)cn1	37.7
